Could you please report measured SUV Hippocampus for the items listed next?
run description: Biodistribution studies of 11C tracers
Assay type: in vivo, Wistar rats
study conditions: 60 min p.i., normalized for body weight
Give the figure only, with no unit attached.

## Input For [11CH3]Oc1cc(F)cc(F)c1C1CCN(c2ccn3c(CC4CC4)nnc3c2Cl)CC1 [[^11C]B-7] , what is its reported SUV Hippocampus?
## Output 0.98

## Input Proceed to [11CH3]Oc1ccc(F)c(F)c1C1CCN(c2ccn3c(CC4CC4)nnc3c2Cl)CC1 [[^11C]B-10]
## Output 0.94

## Input Proceed to [11CH3]Oc1ccc(F)cc1C1CCN(c2ccn3c(CC4CC4)nnc3c2Cl)CC1 [[^11C]B-4]
## Output 1.13

## Input Proceed to [11CH3]Oc1c(F)ccc(F)c1C1CCN(c2ccn3c(CC4CC4)nnc3c2Cl)CC1 [[^11C]B-2]
## Output 0.73

## Input Proceed to [11CH3]Oc1cccc(F)c1C1CCN(c2ccn3c(CC4CC4)nnc3c2Cl)CC1 [[^11C]B-6]
## Output 1.02

## Input Proceed to [11CH3]Oc1c(F)ccc(F)c1C1CCN(c2ccn3c(CC4CC4)nnc3c2C(F)(F)F)CC1 [[^11C]B-3]
## Output 1.11

----------
run description: Biodistribution studies of 11C tracers;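 on Total brain uptake: percentage of injected dose (% ID)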
Type: in vivo, Wistar rats
study conditions: 60 min p.i.
measurement type: Total brain uptake (% ID)
Please give a number only; it is taken to be in % ID.

## Input For [11CH3]Oc1c(F)ccc(F)c1C1CCN(c2ccn3c(CC4CC4)nnc3c2C(F)(F)F)CC1 [[^11C]B-3] , what is its reported Total brain uptake?
## Output 0.66

## Input Proceed to [11CH3]Oc1cc(F)cc(F)c1C1CCN(c2ccn3c(CC4CC4)nnc3c2Cl)CC1 [[^11C]B-7]
## Output 0.72

## Input Proceed to [11CH3]Oc1ccc(F)c(F)c1C1CCN(c2ccn3c(CC4CC4)nnc3c2Cl)CC1 [[^11C]B-10]
## Output 0.78

## Input Proceed to [11CH3]Oc1cccc(F)c1C1CCN(c2ccn3c(CC4CC4)nnc3c2Cl)CC1 [[^11C]B-6]
## Output 0.76

## Input Proceed to [11CH3]Oc1c(F)ccc(F)c1C1CCN(c2ccn3c(CC4CC4)nnc3c2Cl)CC1 [[^11C]B-2]
## Output 0.71

## Input Proceed to [11CH3]Oc1ccc(F)cc1C1CCN(c2ccn3c(CC4CC4)nnc3c2Cl)CC1 [[^11C]B-4]
## Output 0.76

----------
Could you please report measured SUV Striatum for the items listed next?
run description: Biodistribution studies of 11C tracers
Format: in vivo, Wistar rats
study conditions: 30 min p.i., normalized for body weight
Give the figure only, with no unit attached.

## Input For [11CH3]Oc1cccc(F)c1C1CCN(c2ccn3c(CC4CC4)nnc3c2Cl)CC1 [[^11C]B-6] , what is its reported SUV Striatum?
## Output 1.70

## Input Proceed to [11CH3]Oc1ccc(F)cc1C1CCN(c2ccn3c(CC4CC4)nnc3c2Cl)CC1 [[^11C]B-4]
## Output 2.31

## Input Proceed to [11CH3]Oc1c(F)ccc(F)c1C1CCN(c2ccn3c(CC4CC4)nnc3c2C(F)(F)F)CC1 [[^11C]B-3]
## Output 1.15

## Input Proceed to [11CH3]Oc1cc(F)cc(F)c1C1CCN(c2ccn3c(CC4CC4)nnc3c2Cl)CC1 [[^11C]B-7]
## Output 1.70

## Input Proceed to [11CH3]Oc1ccc(F)c(F)c1C1CCN(c2ccn3c(CC4CC4)nnc3c2Cl)CC1 [[^11C]B-10]
## Output 1.39

----------
Could you please report measured % ID Carcass for the items listed next?
run description: Biodistribution studies of 11C tracers
Format: in vivo, Wistar rats
study conditions: 60 min p.i.

## Input For [11CH3]Oc1ccc(F)cc1C1CCN(c2ccn3c(CC4CC4)nnc3c2Cl)CC1 [[^11C]B-4] , what is its reported % ID Carcass?
## Output 62.8 ± 2.5 % ID

## Input Proceed to [11CH3]Oc1c(F)ccc(F)c1C1CCN(c2ccn3c(CC4CC4)nnc3c2Cl)CC1 [[^11C]B-2]
## Output 55.8 ± 9.4 % ID

## Input Proceed to [11CH3]Oc1ccc(F)c(F)c1C1CCN(c2ccn3c(CC4CC4)nnc3c2Cl)CC1 [[^11C]B-10]
## Output 63.7 ± 1.8 % ID

## Input Proceed to [11CH3]Oc1cccc(F)c1C1CCN(c2ccn3c(CC4CC4)nnc3c2Cl)CC1 [[^11C]B-6]
## Output 57.8 ± 1.9 % ID

## Input Proceed to [11CH3]Oc1cc(F)cc(F)c1C1CCN(c2ccn3c(CC4CC4)nnc3c2Cl)CC1 [[^11C]B-7]
## Output 61.5 ± 5.7 % ID

## Input Proceed to [11CH3]Oc1c(F)ccc(F)c1C1CCN(c2ccn3c(CC4CC4)nnc3c2C(F)(F)F)CC1 [[^11C]B-3]
## Output 44.2 ± 10.9 % ID

----------
run description: Perfused brain radiometabolite analysis (30 min p.i.)
Assay type: in vivo, Wistar rats
measurement type: intact tracer in perfused cerebrum (%)
Please give a number only; it is taken to be in %.

## Input For [11CH3]Oc1c(F)ccc(F)c1C1CCN(c2ccn3c(CC4CC4)nnc3c2Cl)CC1 [[^11C]B-2] , what is its reported intact tracer in perfused cerebrum?
## Output 90.3

## Input Proceed to [11CH3]Oc1ccc(F)c(F)c1C1CCN(c2ccn3c(CC4CC4)nnc3c2Cl)CC1 [[^11C]B-10]
## Output 93.1

## Input Proceed to [11CH3]Oc1cc(F)cc(F)c1C1CCN(c2ccn3c(CC4CC4)nnc3c2Cl)CC1 [[^11C]B-7]
## Output 92.9

## Input Proceed to [11CH3]Oc1ccc(F)cc1C1CCN(c2ccn3c(CC4CC4)nnc3c2Cl)CC1 [[^11C]B-4]
## Output 92.4

----------
Could you please report measured % ID present in the urinary system for the items listed next?
run description: Biodistribution studies of 11C tracers
Format: in vivo, Wistar rats
study conditions: 60 min p.i.
Please give a number only; it is taken to be in % ID.

## Input For [11CH3]Oc1ccc(F)cc1C1CCN(c2ccn3c(CC4CC4)nnc3c2Cl)CC1 [[^11C]B-4] , what is its reported % ID present in the urinary system?
## Output 3.5

## Input Proceed to [11CH3]Oc1cccc(F)c1C1CCN(c2ccn3c(CC4CC4)nnc3c2Cl)CC1 [[^11C]B-6]
## Output 2.5

## Input Proceed to [11CH3]Oc1c(F)ccc(F)c1C1CCN(c2ccn3c(CC4CC4)nnc3c2Cl)CC1 [[^11C]B-2]
## Output 2.4

## Input Proceed to [11CH3]Oc1c(F)ccc(F)c1C1CCN(c2ccn3c(CC4CC4)nnc3c2C(F)(F)F)CC1 [[^11C]B-3]
## Output 2.8

## Input Proceed to [11CH3]Oc1ccc(F)c(F)c1C1CCN(c2ccn3c(CC4CC4)nnc3c2Cl)CC1 [[^11C]B-10]
## Output 3.0

## Input Proceed to [11CH3]Oc1cc(F)cc(F)c1C1CCN(c2ccn3c(CC4CC4)nnc3c2Cl)CC1 [[^11C]B-7]
## Output 2.5

----------
run description: Perfused brain radiometabolite analysis (30 min p.i.)
Format: in vivo, Wistar rats
measurement type: polar metabolite in perfused cerebellum (%)
Please give a number only; it is taken to be in %.

## Input For [11CH3]Oc1ccc(F)cc1C1CCN(c2ccn3c(CC4CC4)nnc3c2Cl)CC1 [[^11C]B-4] , what is its reported polar metabolite in perfused cerebellum?
## Output 7.3

## Input Proceed to [11CH3]Oc1ccc(F)c(F)c1C1CCN(c2ccn3c(CC4CC4)nnc3c2Cl)CC1 [[^11C]B-10]
## Output 3.6

## Input Proceed to [11CH3]Oc1cc(F)cc(F)c1C1CCN(c2ccn3c(CC4CC4)nnc3c2Cl)CC1 [[^11C]B-7]
## Output 4.5

## Input Proceed to [11CH3]Oc1c(F)ccc(F)c1C1CCN(c2ccn3c(CC4CC4)nnc3c2Cl)CC1 [[^11C]B-2]
## Output 4.1

----------
run description: Biodistribution studies of 11C tracers
Format: in vivo, Wistar rats
study conditions: 60 min p.i.
measurement type: % ID Spleen + Pancreas (% ID)
Please give a number only; it is taken to be in % ID.

## Input For [11CH3]Oc1ccc(F)c(F)c1C1CCN(c2ccn3c(CC4CC4)nnc3c2Cl)CC1 [[^11C]B-10] , what is its reported % ID Spleen + Pancreas?
## Output 1.4

## Input Proceed to [11CH3]Oc1c(F)ccc(F)c1C1CCN(c2ccn3c(CC4CC4)nnc3c2Cl)CC1 [[^11C]B-2]
## Output 0.7

## Input Proceed to [11CH3]Oc1cccc(F)c1C1CCN(c2ccn3c(CC4CC4)nnc3c2Cl)CC1 [[^11C]B-6]
## Output 0.8

## Input Proceed to [11CH3]Oc1cc(F)cc(F)c1C1CCN(c2ccn3c(CC4CC4)nnc3c2Cl)CC1 [[^11C]B-7]
## Output 0.9

## Input Proceed to [11CH3]Oc1c(F)ccc(F)c1C1CCN(c2ccn3c(CC4CC4)nnc3c2C(F)(F)F)CC1 [[^11C]B-3]
## Output 0.9

## Input Proceed to [11CH3]Oc1ccc(F)cc1C1CCN(c2ccn3c(CC4CC4)nnc3c2Cl)CC1 [[^11C]B-4]
## Output 1.3
